Biological target: EZH2 Mutant Y641N (Homo sapiens (Human), UniProt Q15910, Y641N)
Sequence (Q15910 whole entry Y641N, looked up): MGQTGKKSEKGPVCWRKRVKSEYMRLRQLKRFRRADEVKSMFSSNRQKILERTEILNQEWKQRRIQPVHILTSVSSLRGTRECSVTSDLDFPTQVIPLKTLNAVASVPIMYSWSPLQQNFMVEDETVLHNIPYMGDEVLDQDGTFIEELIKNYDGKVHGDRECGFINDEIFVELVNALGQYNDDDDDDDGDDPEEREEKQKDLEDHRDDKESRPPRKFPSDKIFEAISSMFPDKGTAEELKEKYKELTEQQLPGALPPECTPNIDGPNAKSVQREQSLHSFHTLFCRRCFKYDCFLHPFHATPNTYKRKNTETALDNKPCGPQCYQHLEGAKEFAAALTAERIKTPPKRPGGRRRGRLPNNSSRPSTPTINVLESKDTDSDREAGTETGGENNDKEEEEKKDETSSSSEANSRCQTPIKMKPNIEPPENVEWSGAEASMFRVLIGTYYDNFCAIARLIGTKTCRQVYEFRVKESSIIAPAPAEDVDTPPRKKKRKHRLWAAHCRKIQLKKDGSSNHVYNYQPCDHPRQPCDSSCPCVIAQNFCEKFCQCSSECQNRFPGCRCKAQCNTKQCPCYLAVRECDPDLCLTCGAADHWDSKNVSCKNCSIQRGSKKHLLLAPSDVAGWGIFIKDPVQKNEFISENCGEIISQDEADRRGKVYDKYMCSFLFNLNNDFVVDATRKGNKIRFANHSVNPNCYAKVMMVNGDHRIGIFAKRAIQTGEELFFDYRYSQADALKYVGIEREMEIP
Sequence (O75530 whole entry partner, looked up): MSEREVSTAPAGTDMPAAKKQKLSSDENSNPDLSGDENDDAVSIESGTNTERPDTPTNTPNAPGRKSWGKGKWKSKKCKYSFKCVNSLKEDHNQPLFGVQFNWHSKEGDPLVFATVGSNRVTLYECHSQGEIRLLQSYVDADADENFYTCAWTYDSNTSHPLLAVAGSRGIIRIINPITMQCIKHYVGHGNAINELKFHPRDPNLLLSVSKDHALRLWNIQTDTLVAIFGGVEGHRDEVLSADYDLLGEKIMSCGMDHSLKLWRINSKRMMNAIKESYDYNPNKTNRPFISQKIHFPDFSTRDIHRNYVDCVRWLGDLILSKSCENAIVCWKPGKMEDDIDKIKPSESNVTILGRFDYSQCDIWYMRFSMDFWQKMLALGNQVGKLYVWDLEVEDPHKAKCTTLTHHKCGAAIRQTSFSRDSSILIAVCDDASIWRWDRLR
Sequence (Q15022 whole entry partner, looked up): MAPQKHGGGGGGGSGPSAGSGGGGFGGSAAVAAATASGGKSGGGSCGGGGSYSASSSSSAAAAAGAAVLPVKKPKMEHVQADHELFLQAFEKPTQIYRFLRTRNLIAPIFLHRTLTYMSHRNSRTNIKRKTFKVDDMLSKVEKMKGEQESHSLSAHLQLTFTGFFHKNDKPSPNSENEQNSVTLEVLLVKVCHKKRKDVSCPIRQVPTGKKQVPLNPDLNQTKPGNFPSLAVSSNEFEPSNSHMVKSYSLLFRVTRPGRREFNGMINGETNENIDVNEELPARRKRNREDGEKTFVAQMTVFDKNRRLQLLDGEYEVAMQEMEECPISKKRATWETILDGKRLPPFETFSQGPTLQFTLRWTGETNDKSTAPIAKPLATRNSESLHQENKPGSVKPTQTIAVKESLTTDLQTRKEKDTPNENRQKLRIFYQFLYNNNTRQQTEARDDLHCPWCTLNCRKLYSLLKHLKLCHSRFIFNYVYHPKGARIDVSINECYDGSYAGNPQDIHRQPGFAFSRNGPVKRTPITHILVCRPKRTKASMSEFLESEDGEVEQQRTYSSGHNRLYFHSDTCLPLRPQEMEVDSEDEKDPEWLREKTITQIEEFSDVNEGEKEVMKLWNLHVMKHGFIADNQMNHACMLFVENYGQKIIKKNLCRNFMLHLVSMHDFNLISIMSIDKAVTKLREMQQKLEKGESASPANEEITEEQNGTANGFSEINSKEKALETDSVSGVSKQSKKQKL
Sequence (Q09028 whole entry partner, looked up): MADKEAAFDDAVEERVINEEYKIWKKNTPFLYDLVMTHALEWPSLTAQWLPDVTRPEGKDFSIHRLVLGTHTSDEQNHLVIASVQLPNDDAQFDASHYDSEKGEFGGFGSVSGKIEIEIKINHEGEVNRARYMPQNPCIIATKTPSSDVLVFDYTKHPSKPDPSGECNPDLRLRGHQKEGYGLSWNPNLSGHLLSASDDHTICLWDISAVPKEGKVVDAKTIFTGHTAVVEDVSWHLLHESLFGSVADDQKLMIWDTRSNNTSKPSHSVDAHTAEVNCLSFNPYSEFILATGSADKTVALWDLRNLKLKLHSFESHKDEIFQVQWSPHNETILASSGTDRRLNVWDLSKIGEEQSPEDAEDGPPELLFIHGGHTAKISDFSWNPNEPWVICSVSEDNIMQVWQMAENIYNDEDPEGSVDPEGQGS
Test: EZH2 Mutant Y641N nucleosome assay
Format: biochemical
Conditions: PRC2 4-protein complex 6 nM, 1.5 μM SAM, HeLa oligonucleosomes; read-out: EZH2 Mutant Y641N Nucleosome assay IC50
pIC50: −log10 of the molar value.
# pIC50 listing for each entry below

>  <COMPOUND>
CC(=C1CNC1)c1cc(Cl)c2c(c1Cl)C(=O)N(Cc1c(C)cc(C)[nH]c1=O)CC2

>  <MEASURED_ON>
EZH2 Mutant Y641N (Homo sapiens (Human), UniProt Q15910, Y641N)

>  <pIC50>
7.29

$$$$
>  <COMPOUND>
COc1cc(C)[nH]c(=O)c1CN1CCc2c(C)cc([C@@H](OC)[C@@H]3CCOC3)c(Cl)c2C1=O (single isomer, unassigned)

>  <MEASURED_ON>
EZH2 Mutant Y641N (Homo sapiens (Human), UniProt Q15910, Y641N)

>  <pIC50>
6.62

$$$$
>  <COMPOUND>
COC(c1ccc2c(c1Cl)C(=O)N(Cc1c(C)cc(C)[nH]c1=O)CC2)C1CCOC1 (single isomer, unassigned) [Example 134]

>  <MEASURED_ON>
EZH2 Mutant Y641N (Homo sapiens (Human), UniProt Q15910, Y641N)

>  <pIC50>
5.72

$$$$
>  <COMPOUND>
Cc1cc(C)c(CN2CCc3c(Cl)cc([C@@H](CO)[C@@H]4CCOC4)c(Cl)c3C2=O)c(=O)[nH]1

>  <MEASURED_ON>
EZH2 Mutant Y641N (Homo sapiens (Human), UniProt Q15910, Y641N)

>  <pIC50>
5.71

$$$$
>  <COMPOUND>
COC(c1cc(Cl)c2c(c1Cl)C(=O)N(Cc1c(C)cc(C)[nH]c1=O)CC2)C(C)O (stereo not shown)

>  <MEASURED_ON>
EZH2 Mutant Y641N (Homo sapiens (Human), UniProt Q15910, Y641N)

>  <pIC50>
6.75

$$$$
>  <COMPOUND>
COC(c1cc(Cl)c2c(c1Cl)C(=O)N(Cc1c(C)cc(C)[nH]c1=O)CC2)C1CCN(C=O)CC1 (single isomer, unassigned) [Example 73]

>  <MEASURED_ON>
EZH2 Mutant Y641N (Homo sapiens (Human), UniProt Q15910, Y641N)

>  <pIC50>
8.70

$$$$
>  <COMPOUND>
COC(c1cc(Cl)c2c(c1Cl)C(=O)N(Cc1c(C)cc(C)[nH]c1=O)CC2)C1CCNCC1 (single isomer, unassigned) [Example 167]

>  <MEASURED_ON>
EZH2 Mutant Y641N (Homo sapiens (Human), UniProt Q15910, Y641N)

>  <pIC50>
6.07

$$$$
>  <COMPOUND>
Cc1cc(C)c(CN2CCc3c(Cl)cc(CC4CCN(C(=O)CO)CC4)c(Cl)c3C2=O)c(=O)[nH]1

>  <MEASURED_ON>
EZH2 Mutant Y641N (Homo sapiens (Human), UniProt Q15910, Y641N)

>  <pIC50>
7.17

$$$$
>  <COMPOUND>
COc1cc(C)[nH]c(=O)c1CN1CCc2c(C)cc(C(C)C3CN(S(C)(=O)=O)C3)c(Cl)c2C1=O (single isomer, unassigned) [Example 191]

>  <MEASURED_ON>
EZH2 Mutant Y641N (Homo sapiens (Human), UniProt Q15910, Y641N)

>  <pIC50>
8.30

$$$$
>  <COMPOUND>
COC(c1cc(Cl)c2c(c1Cl)C(=O)N(Cc1c(C)cc(C)[nH]c1=O)CC2)C1CN(C)C1 (single isomer, unassigned) [Example 174]

>  <MEASURED_ON>
EZH2 Mutant Y641N (Homo sapiens (Human), UniProt Q15910, Y641N)

>  <pIC50>
7.89

$$$$
>  <COMPOUND>
COc1cc(C)[nH]c(=O)c1CN1CCc2c(Cl)cc([C@@H](OC)C3COC3)c(Cl)c2C1=O

>  <MEASURED_ON>
EZH2 Mutant Y641N (Homo sapiens (Human), UniProt Q15910, Y641N)

>  <pIC50>
6.88

$$$$
>  <COMPOUND>
COC(c1cc(Cl)c2c(c1Cl)C(=O)N(Cc1c(C)cc(C)[nH]c1=O)CC2)C1CCNCC1 (single isomer, unassigned) [Example 166]

>  <MEASURED_ON>
EZH2 Mutant Y641N (Homo sapiens (Human), UniProt Q15910, Y641N)

>  <pIC50>
8.70

$$$$
>  <COMPOUND>
COC(c1cc(Cl)c2c(c1Cl)C(=O)N(Cc1c(C)cc(C)[nH]c1=O)CC2)C1CC(=O)N(C)C1 (single isomer, unassigned) [Example 180]

>  <MEASURED_ON>
EZH2 Mutant Y641N (Homo sapiens (Human), UniProt Q15910, Y641N)

>  <pIC50>
5.67

$$$$
